Assay Remarks: Nuclear factor erythroid 2-related factor 2/antioxidant responsive element (Nrf2/ARE) small molecule agonists: qHTS cell viability counter screen in human keratinocytes (AID 1919968); note: nearly all actives have a fitted effect of over 55% in size
Conditions Used: KeratinoSens HaCaT ARE cells viability, CellTiter-Fluor, 24 h; series mostly up to 92.4 µM
From the text: U.S. Tox21 Program National Center for Advancing Translational Sciences [NCATS] Division of Preclinical Innovation [DPI] U.S. Environmental Protection Agency [EPA] National Institutes of Environmental Health Sciences [NIEHS] National Toxicology Program [NTP] U.S. Food and Drug Administration [FDA] […] The activation of the report gene under culture conditions can be detected by ONE-Glo Luciferase Assay System (Promega, Madison, WI). […]
Results filed as inconclusive are left out. Activity calls are given as the source filed them. Calls come from the whole dose curve; as a rule, active = well fitted cell-killing curve with a large enough effect in the repeat runs; inconclusive = weak or mixed curves, or effect the other way; inactive = flat fitted curve, though single readings scatter.
Your reply should match one of these outcome classes. active, inactive

1) CC/C(=C(\c1ccc(O)cc1)c1ccc(OCCN(C)C)cc1)c1ccccc1 | active
2) Oc1ccc(C2(c3ccc(O)c(C4CCCCC4)c3)CCCCC2)cc1C1CCCCC1 | active
3) CC(C)C=O | inactive
4) C=C(C)C(=O)OCCOC(=O)CC(C)=O | inactive
5) C=Cc1ccncc1 | inactive
6) CCOc1ccc(NC(N)=O)cc1 | inactive

Task: Which outcome did this test record for the compound `S=C(S)NCCNC(=S)S` ?
Result: inactive

Task: Returns: the outcome recorded for `Cc1ccc(C(C)C)cc2c(C)ccc1-2` in this assay.
Result: inactive

Task: Each compound tested received a call. Report the one for `CCN(Cc1cccc(S(=O)(=O)O)c1)c1ccc(C(=C2C=CC(=[N+](CC)Cc3cccc(S(=O)(=O)[O-])c3)C=C2)c2ccccc2)cc1` .
Result: inactive

Task: Hello, I am checking results. What call was entered for CCC(=O)OCCC(C)CCC=C(C)C (stereo unspecified) ?
Result: inactive

Task: Test call for this compound, please: CC1CC(OC(=O)C(O)c2ccccc2)CC(C)(C)N1C (stereo unspecified)
Result: inactive

Task: Field: outcome | Entry: CCCCC(CC)CNC(=O)CC(C)OC(=O)CCC(=O)O (stereo unspecified)
Result: inactive

Task: Call for entry `Cc1c(N)c(=O)n(-c2ccccc2)n1C` :
Result: inactive

Task: Outcome? CCC(C)Nc1ccc(NC(C)CC)cc1 (stereo unspecified)
Result: active

====

Tested Target: 5-hydroxytryptamine receptor 2A (Homo sapiens)
Assay Remarks: 5-hydroxytryptamine receptor 2A (HTR2A) small molecule agonists, cell-based qHTS assay (AID 1963587); note: nearly all actives have a fitted effect of over 30% in size
Conditions Used: HTR2A-CHO cells, calcium flux fluorescence, agonist mode; series mostly up to 76.8 µM
Records with an inconclusive call do not appear. Calls of active or inactive are those of the source. Calls follow the shape of the full dose curve.
Choose one outcome from this list and give only that: active, inactive

Before answering, review these 5 worked examples.
1) CC(O)(c1ccc(Cl)cc1)c1ccc(Cl)cc1 | active
2) COC(=O)c1ccccc1OC | inactive
3) CCC(C)(C)c1cc(O)c(C(C)(C)CC)cc1O | active
4) COc1cc(-c2ccc(=O)[nH]n2)ccc1OC(F)F | inactive
5) CCCCCOc1ccccc1/C(=C\SC)n1ccnc1 | inactive

Task: Record lookup: outcome of this test for `Cc1c[nH]c(=S)[nH]c1=O` ?
Result: inactive

Task: // param item: `CCCCCCCCCCCCCCCCCCNC(=O)OC1CCN(C(=O)OC[C@H](COC(=O)N(Cc2cccc[n+]2CC)C(=O)c2ccccc2OC)OC)CC1` ; yields the recorded call
Result: inactive

Task: Outcome? `O=C1CC[C@@H](C(=O)O)N1`
Result: inactive

Task: Which outcome was entered for the compound COc1ccnc2c1CCCCC2S(=O)c1nc2ccccc2[nH]1 (stereo unspecified) in this test?
Result: inactive

Task: Which outcome was assigned to `Sc1nc2ccccc2s1` in this test?
Result: inactive

The measured values listed here are drawn from PubChem BioAssay (Tox21).
